Reference source: paper PMC3914206

measurement target: panel of 442 kinases (Homo sapiens, UniProt P09619)
Construct: purchased KINOMEscan
Sequence (P09619 33-1106): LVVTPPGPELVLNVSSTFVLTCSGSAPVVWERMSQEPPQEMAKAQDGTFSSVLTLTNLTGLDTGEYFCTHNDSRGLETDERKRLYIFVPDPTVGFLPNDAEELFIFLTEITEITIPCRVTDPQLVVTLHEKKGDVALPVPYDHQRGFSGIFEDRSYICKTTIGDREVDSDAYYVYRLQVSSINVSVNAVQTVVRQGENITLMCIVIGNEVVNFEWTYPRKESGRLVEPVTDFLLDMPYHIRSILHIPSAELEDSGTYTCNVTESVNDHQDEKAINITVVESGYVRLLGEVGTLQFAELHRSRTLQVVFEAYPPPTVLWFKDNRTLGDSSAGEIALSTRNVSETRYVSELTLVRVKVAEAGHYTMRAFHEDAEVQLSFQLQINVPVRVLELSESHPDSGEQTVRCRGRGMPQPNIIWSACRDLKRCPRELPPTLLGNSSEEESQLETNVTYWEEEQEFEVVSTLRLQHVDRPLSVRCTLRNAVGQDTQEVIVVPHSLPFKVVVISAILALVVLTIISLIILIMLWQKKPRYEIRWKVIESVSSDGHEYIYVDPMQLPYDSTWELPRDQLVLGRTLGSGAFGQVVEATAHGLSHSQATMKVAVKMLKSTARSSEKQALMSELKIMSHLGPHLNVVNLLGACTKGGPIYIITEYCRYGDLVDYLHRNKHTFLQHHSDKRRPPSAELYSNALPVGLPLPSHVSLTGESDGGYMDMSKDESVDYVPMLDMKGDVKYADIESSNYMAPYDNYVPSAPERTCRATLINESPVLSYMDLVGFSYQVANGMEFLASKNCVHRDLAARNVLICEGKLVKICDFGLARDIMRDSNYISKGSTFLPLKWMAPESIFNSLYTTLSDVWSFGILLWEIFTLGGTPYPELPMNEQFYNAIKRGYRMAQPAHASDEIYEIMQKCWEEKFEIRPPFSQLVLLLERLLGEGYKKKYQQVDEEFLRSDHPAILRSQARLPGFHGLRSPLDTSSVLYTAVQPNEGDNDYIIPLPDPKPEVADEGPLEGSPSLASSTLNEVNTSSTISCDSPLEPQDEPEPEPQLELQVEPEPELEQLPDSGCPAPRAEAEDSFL
Type: binding
condition: Compound Concentration 10 µM
measured quantity: KINOMEscan: PDGFRB
// print number alone

Prompt: I have this compound here, COc1cc(C(=O)N2CCC(N3CCN(C)CC3)CC2)ccc1Nc1ncc2c(n1)N(C1CCCC1)c1ccccc1C(=O)N2C [Compound 25] , and I need its recorded KINOMEscan: PDGFRB.
Response: 83

Prompt: Suppose we examine the compound CCOc1cc(C(=O)N2CCC(N3CCN(C)CC3)CC2)ccc1Nc1ncc2c(n1)N(C1CCCC1)c1ccccc1C(=O)N2C [Compound 26] ; what KINOMEscan: PDGFRB value has been reported?
Response: 100

Prompt: Which measured KINOMEscan: PDGFRB value corresponds to COc1cc(C(=O)N2CCC(N3CCN(C)CC3)CC2)ccc1Nc1ncc2c(n1)N1CCc3cccc(c31)C(=O)N2C [Compound 24] ?
Response: 67

Prompt: // query KINOMEscan: PDGFRB value for entry COc1cc(C(=O)N2CCC(N3CCN(C)CC3)CC2)ccc1Nc1ncc2c(n1)N(C)c1ccccc1C(=O)N2C [15 (LRRK2-IN-1)]
Response: 100
